src = patent US20230131899A1

Target: E. coli CsgA (Escherichia coli, UniProt P28307)
Construct: made in house; host or cells: E. coli NEB 3016 slyD::kan, pET11d
Sequence (P28307 23-151): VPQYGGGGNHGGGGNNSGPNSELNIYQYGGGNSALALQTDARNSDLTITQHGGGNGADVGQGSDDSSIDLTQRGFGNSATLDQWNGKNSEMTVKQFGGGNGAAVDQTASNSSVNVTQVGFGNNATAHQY
Experiment: In vitro ThioflavinT assay of CsgA aggregation (CsgA ThT Assay)
Format: biochemical
Conditions: read-out: CsgA ThT Assay (2 μM CsgA) % Control Bmax 25 μM, mean Bmax as percentage of DMSO control; CsgA 2 μM, white plates; compound 25 μM
Assign remaining activity at 25 µM to each entry below.
Answers are plain numbers, in %.

[[record]]
compound = "O=C(O)[C@@H]1CN(Cc2ccccc2)c2c(-c3cccc(C(F)(F)F)c3)c(Cc3cccc4ccccc34)c(Br)c(=O)n21 (single isomer, unassigned)"
assay_value = 58


Can you give me remaining activity at 25 µM for all of these, one by one?
1. O=C(O)C1CN(Cc2ccccc2)c2c(-c3cccc(Br)c3)c(Cc3cccc4ccccc34)c(Cl)c(=O)n21 (stereo not drawn)
2. CN(C)C(=O)c1c(Cc2cccc3ccccc23)c(-c2cccc(C(F)(F)F)c2)c2n(c1=O)C(C(=O)O)CN(C)S2(=O)=O (stereo not drawn)

Output line:
1: 61; 2: 73

----------
Molecular target: human α-synuclein (Homo sapiens, UniProt P37840)
Construct: the full-length gene for untagged human α-synuclein was inserted; made in house; host or cells: E. coli BL21(DE3), plasmid derived from pT7 or pET11a
Assay: Cell-free Thioflavin T assay of α-synuclein aggregation (αSyn ThT Assay)
Assay type: biochemical
Conditions: class symbol; αSyn 50 μM, compounds 100 μM; read-out: αSyn ThT Assay % inhibition, activity range
Please respond with reported inhibition at 100 µM for every item in the list.

[[record]]
molecule = "N#Cc1ccccc1CN1CC(C(=O)O)n2c1c(-c1cccc(C(F)(F)F)c1)c(Cc1cccc3ccccc13)c(Cl)c2=O (stereo not drawn)"
parameter = "inhibition at 100 µM"
assay_value = "11 to 30%"

[[record]]
molecule = "CCCN1CC(C(=O)O)n2c(c(-c3cccc(C(F)(F)F)c3)c(C(F)(F)c3cccc4ccccc34)cc2=O)S1(=O)=O (stereo not drawn)"
parameter = "inhibition at 100 µM"
assay_value = "> 60%"


Note: attention shifts to another entry.
Given the molecule CCNC(=O)c1c(Cc2cccc3ccccc23)c(-c2cccc(C(F)(F)F)c2)c2n(c1=O)C(C(=O)O)CN(C)S2(=O)=O (stereo not drawn) and test system human α-synuclein (Homo sapiens, UniProt P37840), the measured inhibition at 100 µM is > 60%

----------
Molecular target: E. coli CsgA (Escherichia coli, UniProt P28307)
Construct: made in house; host or cells: E. coli NEB 3016 slyD::kan, pET11d
Test: In vitro ThioflavinT assay of CsgA aggregation (CsgA ThT Assay)
Type: biochemical
Conditions: read-out: CsgA ThT Assay (10 μM CsgA) % Control AUC at 1005 minutes, 100 μM, mean AUC as % of DMSO control; CsgA 10 μM, black plates; compound 100 μM; 1005 minutes
Hi there, I'd appreciate the recorded remaining activity at 100 µM for every entry that follows.
Answers are plain numbers, in %.

Before answering, review these 3 worked examples.
[[record]]
compound = "CC(C)N1CC(C(=O)O)n2c(c(-c3cccc(C(F)(F)F)c3)c(Cc3cccc4ccccc34)c(NC3CCCC3)c2=O)S1(=O)=O (stereo not shown)"
assay_value = 25

[[record]]
compound = "O=C(O)c1c(Cc2ccccc2)sc2c(-c3cccc(C(F)(F)F)c3)c(Cc3cccc4ccccc34)cc(=O)n12"
assay_value = 98

[[record]]
compound = "Nc1c(Cc2cccc3ccccc23)c(-c2cccc(C(F)(F)F)c2)c2scc(C(=O)O)n2c1=O"
assay_value = 22


Fill in remaining activity at 100 µM for each of the 8 compounds listed.
1. O=c1cc(Cc2cccc3ccccc23)c(-c2cccc(C(F)(F)F)c2)c2n1C(CO)CS2 (stereo not shown)
2. CN(C)CCN1CC(C(=O)O)n2c(c(-c3cccc(C(F)(F)F)c3)c(Cc3cccc4ccccc34)cc2=O)S1(=O)=O (stereo not shown)
3. CN1CC(C(=O)O)n2c(c(-c3cccc(C(F)(F)F)c3)c(Cc3cccc4ccccc34)c(NC3CCOCC3)c2=O)S1(=O)=O (stereo not shown)
4. CCc1c(Cc2cccc3ccccc23)c(-c2cccc(C(F)(F)F)c2)c2n(c1=O)C(C(=O)O)CN(C(C)C)S2(=O)=O (stereo not shown)
5. O=C(O)C1CSc2c(-c3cccc(C(F)(F)F)c3)c(Cc3cccc4ccccc34)cc(=S)n21 (stereo not shown)
6. Cn1c(=O)c2c(nc(CCCCN3CC(C(=O)O)n4c(c(-c5cccc(C(F)(F)F)c5)c(Cc5cccc6ccccc56)cc4=O)S3(=O)=O)n2C)n(C)c1=O (stereo not shown)
7. O=C(O)C1CSc2c(-c3cccc(C(F)(F)F)c3)c(C(F)(F)c3cccc4ccccc34)nc(=O)n21 (stereo not shown)
8. O=C(O)[C@@H]1CNS(=O)(=O)c2c(-c3cccc(C(F)(F)F)c3)c(Cc3cccc4ccccc34)cc(=O)n21 (single isomer, unassigned) [Compound 009a]

Output line:
[76, 70, 10, 23, 50, 42, 21, 17]

Working through the 2 compounds below one at a time, give remaining activity at 100 µM for each.
1. O=C(O)C1CN(C[C@@H](O)CO)S(=O)(=O)c2c(-c3cccc(C(F)(F)F)c3)c(Cc3cccc4ccccc34)cc(=O)n21 (mixture of isomers) [Compound 065b]
2. C=CCCN1CC(C(=O)O)n2c(c(-c3cccc(C(F)(F)F)c3)c(Cc3cccc4ccccc34)cc2=O)S1(=O)=O (stereo not shown)

Output line:
1: 16; 2: 39
